Measured values drawn from PubChem BioAssay AID504465 for this set.

assay: IN Cell qHTS Assay for Inhibitors of the mTORC1 Signaling Pathway in MEF (Tsc2-/-, p53-/-) Cells: Sytravon; conditions: phospho-rpS6 immunofluorescence, 24 h; series mostly up to 38.3 µM; further: nearly all actives have a fitted effect of over 60% in size
The whole screen tested about 2,100 compounds, of which about 210 (10%) were called active. Roughly 53% stayed inconclusive and do not appear here. The call rests on the fitted dose curve; in most records, active means well fitted inhibition curve with a large enough effect; inconclusive means small, poorly fitted or top-dose-only effect, or effect the other way; inactive means no such curve, though single readings can be large or run the other way. The list shows a part of the results.
// classify into 1 (yes) = active, 0 (no) = inactive

Compound: COc1ccc(N2CCN(C(=O)C(C)n3nc(C)c4sc5ccccc5c4c3=O)CC2)cc1 (stereo not given)
Label Value: 1 (yes)
--
Compound: Cc1ccc(Nc2cc(C)nc3nc(Cc4ccc(Cl)cc4)nn23)cc1
Label Value: 0 (no)

[ask] Each compound tested received a call. Report the one for `Cc1nn(CCCC(=O)NCCc2ccc(Cl)cc2)c(=O)c2c1sc1ccccc12` .
[reply] 1 (yes)

[ask] Please do the same for `COc1ccc(Cn2ccc3nc(C)c(C(=O)N4CCN(c5ccc(OC)cc5)CC4)cc3c2=O)cc1` as well.
[reply] 0 (no)
